Quick reference: Heart rate increase (beats/min.)ED50 of the listed items.
# Test system: dogs with induced myocardial infarction
# assay_protocol: Inotropic potency on intravenous administration to dogs with induced myocardial infarction
# Format: in vivo
# test_conditions: increase in heart rate observed at the ED50 dose, dogs with induced myocardial infarction
Form entry: enter the amount, then its unit.

molecular_string	target_of_assay	metric_name	result
Oc1ccc([C@@H](O)CNCCCc2cccc(O)c2)cc1	dogs with induced myocardial infarction	Heart rate increase (beats/min.)ED50	16 beats/min.
Oc1ccc(CCCNC[C@H](O)c2ccc(O)cc2)cc1	dogs with induced myocardial infarction	Heart rate increase (beats/min.)ED50	10 beats/min.
Oc1ccc(CCCNC[C@H](O)c2cccc(O)c2)cc1	dogs with induced myocardial infarction	Heart rate increase (beats/min.)ED50	12 beats/min.

Please find the next compound below.
Prompt: Fill in the blank: the reported Heart rate increase (beats/min.)ED50 of Oc1cccc(CCCNC[C@H](O)c2cccc(O)c2)c1 is ____.
Response: 14 beats/min.

Reference for the values: patent EP0007716A1
